assay: Phase 1/2a study, pharmacokinetics; format: in vivo, human; conditions: human, plasma; oral, 30-100 mg BID
experimental-endpoint: Tmax

Query string: Quickly give me recorded Tmax for C=CC(=O)N[C@H]1C=C(C)c2c(-c3cnc4ccccc4c3)c3c(N)ncnc3n2C1
Result string: 0.5 to 2 h

====

experiment: Phase 1/2a study, pharmacokinetics; format: in vivo, human; settings: human, plasma, oral, 100 mg, 100 mg BID, patient 0102-001; read-out: T1/2 (converted)
experimental-endpoint: half-life

Query string: Look up half-life of C=CC(=O)N[C@H]1C=C(C)c2c(-c3cnc4ccccc4c3)c3c(N)ncnc3n2C1 and report it.
Result string: 3.6 h

The measured values listed here are drawn from patent US20230372346A1.
